- Assay explanation: AUC (0 to t) in Sprague-Dawley rat at 2 mg/kg, iv measured for 36 hrs by MRM analysis
- Type: ADME, organism-based
- Reported conditions: in vivo
Measure name: AUC(0-t) at 36 h (ng·h/mL)

> print(dat)
                                  structure  recorded.number
1  Cc1cnc(Nc2ccc(S(N)(=O)=O)cc2)nc1Nc1nccs1             33.5

---

- Assay explanation: Tmax in Sprague-Dawley rat at 10 mg/kg, po measured for 36 hrs by MRM analysis
- Type: ADME, organism-based
- Reported conditions: in vivo
Measure name: Tmax (min)

> print(dat)
                                  structure  measure.name  units.of.measure  recorded.number
1  Cc1cnc(Nc2ccc(S(N)(=O)=O)cc2)nc1Nc1nccs1          Tmax               min               30

Data origin, for the record: ChEMBL document CHEMBL6096697
